ASSAY_PROTOCOL: qHTS assay for identifying genotoxic compounds that show differential cytotoxicity against isogenic chicken DT40 cell lines with known DNA damage response pathways - wild type cell line (AID 743012); also: nearly all actives have a fitted effect of over 60% in size
TEST_SETTINGS: DT40 wild type chicken cells viability, CellTiter-Glo, 40 h; series mostly up to 68.4 µM
Records with an inconclusive call do not appear. The source made the active and inactive calls. Calls follow the shape of the dose curve; as a rule, active = well fitted cell-killing curve with a large enough effect in the repeat runs; inconclusive = weak or mixed curves, or effect the other way; inactive = no such curve, though single readings can be large or run the other way.
// one of active, inactive, no free text

Worked examples follow.
Ask: Write down the call the test reported for this compound. Item: C=CC(C)(O)CC/C=C(\C)CCC=C(C)C (centres undefined)
Result: inactive

Ask: Now give it for O=C1CCCCCCCCCCC(=O)OCCO1 too.
Result: inactive

Ask: Now give it for CCOc1ccc2nc(N)sc2c1 too.
Result: inactive

Ask: Now give it for CCCCCCCCOC(=O)CCCCCCCCC(=O)OCCCCCCCC too.
Result: active

Ask: Now give it for COc1ccccc1N1CCN(CCCNc2cc(=O)n(C)c(=O)n2C)CC1 too.
Result: inactive

Further cases:
Ask: Write down the call the test reported for this compound. Item: CCN(CCCc1ccccc1)CCCc1ccccc1
Result: active

Ask: Now give it for C[C@@H]1CN(c2c(F)c(F)c3c(=O)c(C(=O)O)cn(C4CC4)c3c2F)C[C@H](C)N1 too.
Result: inactive

Ask: Now give it for CCN(CC)C(=O)N(CC)CC too.
Result: inactive

Ask: Now give it for CCCCCCC too.
Result: inactive

Ask: Now give it for CCOc1ccc(NS(=O)(=O)c2ccc(N)cc2)nn1 too.
Result: inactive

Ask: Now give it for O=C(O)CN(CCN(CC(=O)O)CC(=O)O)CCN(CC(=O)O)CC(=O)O too.
Result: active

Ask: Now give it for CCN(CC)CCOc1ccc(Cc2ccccc2)cc1 too.
Result: active

Ask: Now give it for NS(=O)(=O)c1cc(-c2nn[nH]n2)c(NCc2cccs2)cc1Cl too.
Result: inactive

====

ASSAY_PROTOCOL: qHTS RealTime-Glo MT Cell Viability Assay in HEK293 cells - 8 hour (AID 1224887); also: nearly all actives have a fitted effect of over 50% in size; also: potency is read from the fitted curve at half-maximal effect
TEST_SETTINGS: RealTime-Glo luminescence; series mostly up to 76.8 µM
Inconclusive results are not listed. The source made the active and inactive calls. Calls come from the whole dose curve; as a rule, active = well fitted cell-killing curve with a large enough effect in the repeat runs; inconclusive = weak or mixed curves, or effect the other way; inactive = flat fitted curve, though single readings scatter.
ASSAY_ENDPOINT: Potency

Ask: What value of Potency has been recorded for this entry: Cc1nnc(SCC2=C(C(=O)O)N3C(=O)[C@@H](NC(=O)Cn4cnnn4)[C@H]3SC2)s1
Result: inactive

Ask: Now give it for CCCS(=O)c1ccc2nc(NC(=O)OC)[nH]c2c1 (stereo not given) too.
Result: inactive

Ask: Now give it for C1CSCCS1 too.
Result: inactive

Ask: Now give it for CCCCCCOc1ccc(N)cc1 too.
Result: 19.5 µM (active)

Then this molecule:
Ask: What value of Potency has been recorded for this entry: COC(=O)N[C@H](C(=O)N[C@@H](Cc1ccccc1)[C@@H](O)CN(Cc1ccc(-c2ccccn2)cc1)NC(=O)[C@@H](NC(=O)OC)C(C)(C)C)C(C)(C)C
Result: inactive

====

ASSAY_PROTOCOL: qHTS RealTime-Glo MT Cell Viability Assay in HEK293 cells - 8 hour (AID 1224887); also: nearly all actives have a fitted effect of over 50% in size
TEST_SETTINGS: RealTime-Glo luminescence; series mostly up to 76.8 µM
Records with an inconclusive call do not appear. Active and inactive are the calls of the source. Calls follow the shape of the dose curve; as a rule, active = well fitted cell-killing curve with a large enough effect in the repeat runs; inconclusive = weak or mixed curves, or effect the other way; inactive = flat fitted curve, though single readings scatter.
// one of class 1 = active, class 0 = inactive, no free text

Worked examples follow.
Ask: Write down the call the test reported for this compound. Item: CC(CNC1CCCCC1)OC(=O)c1ccccc1 (stereo not given)
Result: class 0

Ask: Now give it for C[C@]12CCC(=O)C=C1CC[C@@H]1[C@@H]2CC[C@@]2(C)[C@H]1CC[C@]2(O)C(=O)CO too.
Result: class 0

Ask: Now give it for CC(C)(CO)[C@@H](O)C(=O)NCCC(=O)O too.
Result: class 0

Ask: Now give it for CCc1cc2cc(OC)c(OC)cc2c(Cc2ccccc2)n1 too.
Result: class 1

Ask: Now give it for N#CSCC(=O)O too.
Result: class 0

Ask: Now give it for C=CC(C)(O)CC/C=C(\C)CCC=C(C)C (stereo not given) too.
Result: class 0

Ask: Now give it for C=C(C)C(=O)OCCOP(=O)(O)O too.
Result: class 0

Ask: Now give it for CCC(=O)O[C@]1(C(=O)SCF)[C@H](C)C[C@H]2[C@@H]3C[C@H](F)C4=CC(=O)C=C[C@]4(C)[C@@]3(F)[C@@H](O)C[C@@]21C too.
Result: class 0

Further cases:
Ask: Write down the call the test reported for this compound. Item: Cc1cc(S(=O)(=O)O)c(N)cc1Cl
Result: class 0

Ask: Now give it for CN1C(=O)CC(c2ccccc2)C1=O (stereo not given) too.
Result: class 0

Ask: Now give it for CC(C)(C)c1ccc(OC(=O)c2ccccc2O)cc1 too.
Result: class 0

====

ASSAY_PROTOCOL: qHTS RealTime-Glo MT Cell Viability Assay in HEK293 cells - 32 hour (AID 1224868); also: top concentration of the series differs between compounds; % is scaled to controls: 0 for no effect and ±100 for the full control effect; nearly all actives have a fitted effect of over 50% in size
TEST_SETTINGS: RealTime-Glo luminescence; series mostly up to 76.8 µM
Inconclusive results are not listed. The source made the active and inactive calls. The call rests on the fitted dose curve; in most records, active means well fitted cell-killing curve with a large enough effect in the repeat runs; inconclusive means weak or mixed curves, or effect the other way; inactive means flat fitted curve, though single readings scatter.
// one of active, inactive, no free text

Ask: Write down the call the test reported for this compound. Item: Cc1cccc(C)c1NC(=O)CN1CCCCCC1
Result: inactive

Ask: Now give it for CCc1nnc(NS(=O)(=O)c2ccc(N)cc2)s1 too.
Result: inactive

Ask: Now give it for CCOC(=O)C(Br)c1ccccc1 (stereo not given) too.
Result: inactive

Ask: Now give it for CCOc1ccc(NC(N)=O)cc1 too.
Result: inactive

Ask: Now give it for CC(=O)OC(C)OC(C)=O too.
Result: inactive

Ask: Now give it for CC(=O)OC1C2(C)CCC(C2)C1(C)C (stereo not given) too.
Result: inactive

Further cases:
Ask: Write down the call the test reported for this compound. Item: CC(C)(C)c1cccc(O)c1
Result: inactive

Ask: Now give it for O=C1N(c2ccccc2)c2ccccc2C1(Cc1ccncc1)Cc1ccncc1 too.
Result: inactive

Ask: Now give it for CCN(O)CC too.
Result: inactive

Ask: Now give it for CO[C@@]1(NC(=O)CSCC#N)C(=O)N2C(C(=O)O)=C(CSc3nnnn3C)CS[C@@H]21 too.
Result: inactive

Ask: Now give it for Cc1cc(NS(=O)(=O)c2ccc(N)cc2)nc(C)n1 too.
Result: inactive

Ask: Now give it for COC(=O)C(C)O (stereo not given) too.
Result: inactive

Ask: Now give it for COc1ccccc1OCC(O)COC(N)=O (stereo not given) too.
Result: inactive

Ask: Now give it for CCCCNc1cc(C(=O)O)cc(S(N)(=O)=O)c1Oc1ccccc1 too.
Result: inactive

Ask: Now give it for Oc1ccccc1F too.
Result: inactive

Ask: Now give it for CC(C)C(=O)OCC(C)(C)C(O)C(C)C (stereo not given) too.
Result: inactive

Ask: Now give it for O=C(O)[C@@H]1CSCN1 too.
Result: inactive

Ask: Now give it for NCCCN1CCN(CCCN)CC1 too.
Result: inactive

Ask: Now give it for C=CC1CO1 (stereo not given) too.
Result: inactive

Ask: Now give it for CCCc1c2oc(C(=O)O)cc(=O)c2cc2c(=O)cc(C(=O)O)n(CC)c12 too.
Result: inactive

Ask: Now give it for C=CCc1cc(OC)c(O)c(C(=O)NCCO)c1 too.
Result: inactive

====

MEASUREMENT_TARGET: Progesterone receptor (Homo sapiens)
ASSAY_PROTOCOL: qHTS assay to identify small molecule antagonists of the progesterone receptor (PR) signaling pathway (AID 1346795)
TEST_SETTINGS: PR-UAS-bla HEK293T, beta-lactamase FRET ratio, 16 h; series mostly up to 92.4 µM
Results filed as inconclusive are left out. Activity calls are given as the source filed them. The call rests on the fitted dose curve; in most records, active means well fitted inhibition curve with a large enough effect in the signal ratio in the repeat runs (not every such curve was filed as active); inconclusive means weak or mixed curves; inactive means flat fitted curve, though single readings scatter; the % refers to the signal ratio.
// one of active, inactive, no free text

Worked examples follow.
Ask: Write down the call the test reported for this compound. Item: C=CCCCCCCCCO
Result: inactive

Ask: Now give it for C/C(=N\O)[C@@H](C)NCC(C)(C)CN[C@H](C)/C(C)=N/O too.
Result: inactive

Ask: Now give it for CC(=O)Oc1cc(C(C)C)c(OCCN(C)C)cc1C too.
Result: inactive

Ask: Now give it for CC(C)S too.
Result: inactive

Ask: Now give it for OCC(CBr)(CBr)CBr too.
Result: active

Ask: Now give it for COc1nc(C)nc(NC(=O)NS(=O)(=O)c2ccccc2OCCCl)n1 too.
Result: inactive

Further cases:
Ask: Write down the call the test reported for this compound. Item: C=C(C)C(=O)OCCOP(=O)(O)O
Result: inactive

Ask: Now give it for OCCN1CCN(CCO)CC1 too.
Result: inactive

Ask: Now give it for OCCN(CCO)c1ccccc1 too.
Result: inactive

Ask: Now give it for CN(C)Cc1ccccc1 too.
Result: inactive

Ask: Now give it for O=C1CCC(C2CCCCC2)CC1 too.
Result: inactive

Ask: Now give it for COC(=O)C(C)O (stereo not drawn) too.
Result: inactive

Ask: Now give it for NC/C=C/C(=O)O too.
Result: inactive

Ask: Now give it for CCCCCCCCc1ccc(S(=O)(=O)O)cc1 too.
Result: inactive

Ask: Now give it for Cc1ccsc1C(=CCCN1CCC[C@@H](C(=O)O)C1)c1sccc1C too.
Result: inactive
